Data provenance is patent US20150218281A1.

# TEST_TARGET: T1, recombinant human OX40L (extracellular domain, R&D Systems) (human, UniProt P23510 51-183)
# T1 construct: also called hOX40L; rec. hOX40L
# T1 sequence: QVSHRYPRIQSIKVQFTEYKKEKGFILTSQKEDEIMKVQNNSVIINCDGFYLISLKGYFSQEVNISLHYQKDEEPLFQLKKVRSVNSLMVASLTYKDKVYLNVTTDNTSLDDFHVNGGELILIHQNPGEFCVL
# ASSAY_COMMENT: SPR, second injection after competitor OX40L01E07
OBSERVED_PROPERTY: Binding Level sample 2 (RU)
Answer in RU, number only, no unit symbol.

Take a look at these entries with their results.
BINDER	OBSERVED_PROPERTY	VALUE_REPORTED
OX40L15B07 (VHH, monovalent Nanobody from E. coli; not shown: C-terminal c-myc and His6 tag) VHH: EVQLVESGGGLVQAGGSLRLSCAASRSIGRLDRMGWYRHRTGEPRELVATITGGSSINYGDFVKGRFTISIDNAKNTVYLQMNNLKPEDTAVYYCNFNKYVTSRDTWGQGTQVTVSS	Binding Level sample 2 (RU)	198
OX40L19A07 (VHH, monovalent Nanobody from E. coli; not shown: C-terminal c-myc and His6 tag) VHH: EVQLVESGGGLVQAGGSLRLSCAASGFTLDDYAIAWFRQAPGKEREGVSRIKISNGRTTYAGSVKGRFTISSDNAKNTVYLQMNSLNAEDTAVYYCAADRSSLLFGSNWDRKARYDYWGQGTQVTVSS	Binding Level sample 2 (RU)	179
OX40L19D08 (VHH, monovalent Nanobody from E. coli; not shown: C-terminal c-myc and His6 tag) VHH: EVQLVESGGGLVQAGASLRLSCAASGRRFISNYAMGWFRQAPGQERAFVAAISRSGSITYYTDSVKGRFSISRDYAKSTVYLQMDNLKPEDTAVYYCAADGGAVRDLTTNLPDYWGRGTQVTVSS	Binding Level sample 2 (RU)	187

*Q* What Binding Level sample 2 (RU) value was documented for this binder, OX40L01E07 (VHH, monovalent Nanobody from E. coli; not shown: C-terminal c-myc and His6 tag) VHH: EVQLVESGGGLVQAGGSLRLSCAASGRTFSSIYAKGWFRQAPGKEREFVAAISRSGRSTSYADSVKGRFTISRDNAKNTVYLQMNSLKPEDTAVYYCAAVGGATTVTASEWDYWGLGTQVTVSS ?
*A* 192
